Test system: P. falciparum D6 (Sierra Leone)
experiment: [3H]-hypoxanthine incorporation assay, D6
Type: cell-based, Plasmodium falciparum
applied-conditions: read-out: 50% inhibitory concentration (IC50); D6, resistance MFQ; mean ± SD
result-type: IC50
Please don't drop the unit; write it after the number.

Problem: Fetch value of IC50 on P. falciparum D6 (Sierra Leone) for CC(=O)N1CCN(c2ccc(CN(C(=O)/C=C/c3ccc(C(C)(C)C)cc3)[C@@H](Cc3ccccc3)C(=O)N3CCN(Cc4ccc(C#N)cc4)CC3)cc2)CC1 .
Solution: 0.5 nM

---

Test system: P. falciparum 7G8 (Brazil)
experiment: [3H]-hypoxanthine incorporation assay, 7G8
Type: cell-based, Plasmodium falciparum
applied-conditions: read-out: 50% inhibitory concentration (IC50); 7G8, resistance CQ, PYR, CYC; mean ± SD
result-type: IC50 (nM)
Provide the reading as a plain figure in nM.

Problem: Retrieve IC50 measured for CC(=O)N1CCN(c2ccc(CN(C(=O)/C=C/c3ccc(C(C)(C)C)cc3)[C@@H](Cc3ccccc3)C(=O)N3CCN(Cc4ccc(C#N)cc4)CC3)cc2)CC1 [ACT-451840] and print it.
Solution: 0.3
